# ASSAY_NAME: UV absorption properties (λmax, molar extinction coefficient ε, efficiency E 1%, 1 cm)
# Assay type: physicochemical
# CONDITION_SET: Table 7, unsaturated compounds
ENDPOINT_LABEL: λmax (nm)

In [3]: df
Out[3]:
                                   molecule  reading_unit  recorded_measurement
0  C=C/C=C/C(=O)C1=CN(CC(C)C)CCC1(C)C [drawing 117]            nm                   352
1  COc1ccc(/C=C/C(=O)C2=CN(CC(C)C)CCC2(C)C)cc1 [drawing 114]            nm                   364
2  CC(C)CN1C=C(C(=O)/C=C/c2ccc(C(F)(F)F)cc2)C(C)(C)CC1 [drawing 113]            nm                   369
3  C=C/C=C/CC(=O)C1=CN(CC(C)C)CCC1(C)C [drawing 109]            nm                   311
4  C=CCC(=O)C1=CN(CC(C)C)CCC1(C)C [drawing 110]            nm                   310
5  C=C(C)CC(=O)C1=CN(CC(C)C)CCC1(C)C [drawing 108]            nm                   306
6  CC(C)=CC(=O)C1=CN(CC(C)C)CCC1(C)C [drawing 107]            nm                   314
7  C=C(C)C(=O)C1=CN(CC(C)C)CCC1(C)C [drawing 116]            nm                   310
8  CC(C)CN1C=C(C(=O)/C=C/c2ccccc2)C(C)(C)CC1 [drawing 111]            nm                   360
9  C=CC(=O)C1=CN(CC(C)C)CCC1(C)C [drawing 112]            nm                   330

---

# ASSAY_NAME: UV absorption properties (λmax, molar extinction coefficient ε, efficiency E 1%, 1 cm)
# Format: physicochemical
# CONDITION_SET: Table 8b
Values of E (1%, 1 cm) greater than or equal to 1000 map to Criterion met; values below map to Criterion not met.

                                   molecule     category_label
0  COc1ccc(N2C=C(C(=O)C3CCCC3=O)C(C)(C)CC2)cc1 (centres unmarked) [drawing 130]  Criterion not met
1  CCC(=O)C1=CN(c2ccc(C)cc2)CCC1(C)C [drawing 135]      Criterion met
2  CCC(=O)C1=CN(c2cccc3ccccc23)CCC1(C)C [drawing 137]  Criterion not met
3  CCC(=O)C1=CN(c2ccc(C(C)(C)C)cc2)CCC1(C)C [drawing 136]      Criterion met
4  COc1ccc(N2C=C(C(=O)COc3ccccc3)C(C)(C)CC2)cc1 [drawing 132]  Criterion not met
5  Cc1ccc(N2C=C(C(=O)CCCCCCCCC(=O)C3=CN(c4ccc(C)cc4)CCC3(C)C)C(C)(C)CC2)cc1 [drawing 131]  Criterion not met
6  CCCCCCCC(=O)C1=CN(c2ccc(N(C)C)cc2)CCC1(C)C [drawing 134]  Criterion not met
